Tested on: MPTP-treated mice
experimental details: Anti-Parkinsonian activity in MPTP-treated mice with a sub threshold dose of L-DOPA (motor activity counts)
Assay type: in vivo, C57 BL/6 mice
test context: MPTP-treated mice (2×40 mg/kg s.c.); compound 3 mg/kg orally + 5 mg/kg L-Dopa s.c.; counts with Vehicle (no MPTP) = 100%
parameter measured: LOCOMOTION

Here are 4 compounds together with their reported answers.
O=C(O)c1cc([N+](=O)[O-])ccc1NCCc1c[nH]c2ccccc12 : 16%
O=[N+]([O-])c1ccccc1NCCc1c[nH]c2ccccc12 : 53%
Nc1ccccc1C(=O)CCNc1ccccc1[N+](=O)[O-] : 17.6%
N#Cc1ccc(NCCC(=O)c2ccccc2N)c([N+](=O)[O-])c1 : 17%

Ask | Return reported LOCOMOTION. Input compound: N#Cc1cc([N+](=O)[O-])ccc1NCCc1c[nH]c2ccccc12
Reply | 52%

====

Lab note: IC50 readings collected with GSK3β (Homo sapiens, UniProt P49841) for the following molecules.
Sequence (P49841 whole entry, species assumed): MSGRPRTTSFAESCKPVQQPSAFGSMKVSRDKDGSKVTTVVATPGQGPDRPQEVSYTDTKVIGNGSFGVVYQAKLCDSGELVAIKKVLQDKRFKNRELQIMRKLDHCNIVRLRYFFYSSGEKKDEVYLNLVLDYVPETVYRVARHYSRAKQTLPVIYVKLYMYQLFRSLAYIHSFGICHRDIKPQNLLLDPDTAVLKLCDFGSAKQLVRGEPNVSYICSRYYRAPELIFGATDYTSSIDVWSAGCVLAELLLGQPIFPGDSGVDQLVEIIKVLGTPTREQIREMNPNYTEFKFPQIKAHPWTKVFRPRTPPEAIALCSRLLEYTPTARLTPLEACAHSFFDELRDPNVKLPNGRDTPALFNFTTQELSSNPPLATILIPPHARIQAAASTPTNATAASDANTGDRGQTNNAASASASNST
State just the number; it will be interpreted in µM.

Ask | Return reported IC50. Input molecule: COc1ccc2[nH]cc(CCNc3ccc(C#N)c(C#N)c3)c2c1
Reply | 16.8

Ask | Return reported IC50. Input molecule: COc1ccc2[nH]cc(CCNc3ccccc3[N+](=O)[O-])c2c1
Reply | 14.1

Ask | Return reported IC50. Input molecule: N#Cc1cc([N+](=O)[O-])ccc1NCCc1c[nH]c2ccccc12
Reply | 12.7

Ask | Return reported IC50. Input molecule: N#Cc1ccc(NCCc2c[nH]c3ccccc23)cc1C#N
Reply | 14.8

Ask | Return reported IC50. Input molecule: O=[N+]([O-])c1ccccc1NCCc1c[nH]c2ccccc12
Reply | 9.9

====

List of TOTAL ACTIVITY values.
Tested on: MPTP-treated mice
experimental details: Anti-Parkinsonian activity in MPTP-treated mice with a sub threshold dose of L-DOPA (motor activity counts)
Format: in vivo, C57 BL/6 mice
test context: MPTP-treated mice (2×40 mg/kg s.c.); compound 3 mg/kg orally + 5 mg/kg L-Dopa s.c.; counts with Vehicle (no MPTP) = 100%
State just the number; it will be interpreted in %.

COc1ccc2[nH]cc(CCNc3ccccc3[N+](=O)[O-])c2c1 [N-(2-Nitrophenyl)-5-methoxytryptamine] : 73
COc1ccc2[nH]cc(CCNc3ccc(C(=O)O)cc3[N+](=O)[O-])c2c1 : 46

Ask | Return reported TOTAL ACTIVITY. Input compound: COc1ccc2[nH]cc(CCNc3ccc(S(C)(=O)=O)cc3[N+](=O)[O-])c2c1
Reply | 70

Ask | Return reported TOTAL ACTIVITY. Input compound: N#Cc1cc([N+](=O)[O-])ccc1NCCc1c[nH]c2ccccc12 [N-(2-cyano-4-nitrophenyl)-tryptamine]
Reply | 73

Ask | Return reported TOTAL ACTIVITY. Input compound: N#Cc1ccc(NCCC(=O)c2ccccc2N)c([N+](=O)[O-])c1
Reply | 46

Data origin, for the record: patent US8236858B2
